Measured shrunken log2 fold change values are reported for all entries that follow.
System: Escherichia coli TOP10;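 further: peptides expressed intracellularly from a pBAD plasmid library in pooled LB shake-flask culture, induced with 0.3% L-arabinose, DNA abundance read by NGS, three biological replicates, DESeq2 with apeglm shrinkage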
Experiment: shrunken log2 fold change of peptide-encoding DNA abundance (4.5 h post-induction vs induction); higher = less antimicrobial activity (less host growth inhibition)
Details: time post-induction: 4.5 h; library: site-saturation at positions 5, 18, 19, 20
// no unit, no text: just the number

Please review the entries below; each comes with its answer.
sequence_input: RRIRGRPPRLPRPRPRPHAKPRP
shrunken log2 fold change: 0.126
--
sequence_input: RRIRNRPPRLPRPRPRPMGRPRP
shrunken log2 fold change: -0.117
--
sequence_input: RRIRIRPPRLPRPRPRPRPQPRP
shrunken log2 fold change: 0.321
--
sequence_input: RRIRIRPPRLPRPRPRPYKSPRP
shrunken log2 fold change: -1.14
--
sequence_input: RRIRFRPPRLPRPRPRPKQDPRP
shrunken log2 fold change: 0.21
--
sequence_input: RRIRMRPPRLPRPRPRPRWMPRP
shrunken log2 fold change: 0.315
--
sequence_input: RRIRPRPPRLPRPRPRPVKEPRP
shrunken log2 fold change: 0.0267
--
sequence_input: RRIRFRPPRLPRPRPRPGTHPRP
shrunken log2 fold change: 1.26

Query :: Fill in the blank: the reported shrunken log2 fold change of "RRIRGRPPRLPRPRPRPAIYPRP" is ____.
Result :: 0.302

Query :: Next sequence: "RRIRNRPPRLPRPRPRPAYDPRP"
Result :: -0.119

Query :: Next sequence: "RRIRERPPRLPRPRPRPHMWPRP"
Result :: -0.0491

Query :: Next sequence: "RRIRRRPPRLPRPRPRPADWPRP"
Result :: 0.652

Query :: Next sequence: "RRIRTRPPRLPRPRPRPNCEPRP"
Result :: 0.111

Query :: Next sequence: "RRIRKRPPRLPRPRPRPKPVPRP"
Result :: 0.39

Query :: Next sequence: "RRIRVRPPRLPRPRPRPENVPRP"
Result :: -0.0136

Query :: Next sequence: "RRIRCRPPRLPRPRPRPCWDPRP"
Result :: -0.294

Query :: Next sequence: "RRIRVRPPRLPRPRPRPYLMPRP"
Result :: -0.587

Query :: Next sequence: "RRIRQRPPRLPRPRPRPFPGPRP"
Result :: 0.115

Query :: Next sequence: "RRIRGRPPRLPRPRPRPRDEPRP"
Result :: 0.293

Query :: Next sequence: "RRIRQRPPRLPRPRPRPYWHPRP"
Result :: -0.317

Query :: Next sequence: "RRIRPRPPRLPRPRPRPVQRPRP"
Result :: 0.0521

Query :: Next sequence: "RRIRLRPPRLPRPRPRPPMWPRP"
Result :: 0.26

Query :: Next sequence: "RRIRNRPPRLPRPRPRPVHPPRP"
Result :: -0.0892

Query :: Next sequence: "RRIRYRPPRLPRPRPRPVDSPRP"
Result :: 0.0413

Query :: Next sequence: "RRIRDRPPRLPRPRPRPTKFPRP"
Result :: 0.138
